# System: PPARg:RXRa 270nM:90nM, anti-RXR (NR concentration 270 nM, RXRa partner concentration 90 nM)
# measurement.description: PBM binding z-score (relative to random genomic background probes); higher = stronger binding; sequences stand for … in GC…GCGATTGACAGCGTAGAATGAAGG
endpoint: PBM binding z-score
The response must contain the number and no unit.

AGTCAAAGTTCAGGACGAGGTAACGTCAAGCACG = 4.98
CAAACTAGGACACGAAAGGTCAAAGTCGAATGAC = 6.27
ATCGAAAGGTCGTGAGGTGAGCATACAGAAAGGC = 4.56
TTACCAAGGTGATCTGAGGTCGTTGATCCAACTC = 0.846
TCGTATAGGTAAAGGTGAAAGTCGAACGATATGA = 3.99
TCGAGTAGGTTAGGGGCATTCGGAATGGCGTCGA = 2.22
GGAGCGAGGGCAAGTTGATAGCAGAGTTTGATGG = 0.276
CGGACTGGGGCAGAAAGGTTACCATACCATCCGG = 3.46

Now turn to the next sequence.
**Query** // returns reported PBM binding z-score for input `GCTCGGAGCACAAGGTCAGAGCTTTGTCCGTAGA`
**Result** 1.03
